B1: OR4K15 (parent)
chain: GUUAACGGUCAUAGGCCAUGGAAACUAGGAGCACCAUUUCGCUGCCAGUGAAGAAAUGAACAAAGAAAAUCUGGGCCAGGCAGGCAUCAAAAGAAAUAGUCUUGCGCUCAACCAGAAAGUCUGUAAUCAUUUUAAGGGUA

- Variants of: B1
- testProtocol: self-cleavage, relative activity (ratio to wild type); higher = more cleavage; in vitro, sequencing; the parent is a self-cleaving ribozyme
For each record, write down the corresponding self-cleavage.
One number for each entry.

Answered examples (10):
mutantLabel	self-cleavage
A64G A116U	0.19
A111C U132C	0.01
U9C A62U	2.18
A47G A129G	0.64
A18U U39A	1.05
A52G A59G	1.13
G75C U122C	0.12
A54G A111G	0.03
U37C A51G	1.49
U9A U139A	1.31

For each of the variants below, state self-cleavage.
1. A56C U108C
2. C112A A125G

Reply:
[0.01, 0.01]
